The reader will find reported TGI values listed item by item below.
System: HCC-2998 colon
Assay: NCI tumour cell line growth inhibition, 48 h
Experimental Endpoint: TGI

[[record]]
compound = "COc1cccc([C@H]2CC(=O)c3cc4c(cc3N2)OCO4)c1"
experimental_endpoint = "TGI"
result = "0.115 µM"

[[record]]
compound = "CN(C)c1nc2sc3c(c2c(=O)o1)CCCC3"
experimental_endpoint = "TGI"
result = "> 100 µM"

[[record]]
compound = "O=C(O)c1ccccc1Cc1ccco1"
experimental_endpoint = "TGI"
result = "> 100 µM"

[[record]]
compound = "C1CC2=C(C1)[Se]C(=C1Sc3nsnc3S1)[Se]2"
experimental_endpoint = "TGI"
result = "> 100 µM"

[[record]]
compound = "CC1CC2C3CC(F)C4=CC(=O)C=CC4(C)C3(F)C(O)CC2(C)C1(O)C(=O)COC(=O)C(C)(C)C (stereo unspecified)"
experimental_endpoint = "TGI"
result = "> 100 µM"

[[record]]
compound = "COc1cc2c(/C=N\\N=C(N)N)c(Cl)[nH]c2cc1C"
experimental_endpoint = "TGI"
result = "5.67 µM"

[[record]]
compound = "CC[P+](C)(Cc1ccccc1)c1ccccc1 (stereo unspecified)"
experimental_endpoint = "TGI"
result = "> 100 µM"

[[record]]
compound = "CC[C@@]1(O)C(=O)OCc2c1cc1n(c2=O)Cc2c-1nc1ccccc1c2/C=N\\NC(=O)C(N)CC(C)C (stereo partly specified)"
experimental_endpoint = "TGI"
result = "6.17 µM"

[[record]]
compound = "CN(C)CCNc1ccc(C(=O)NCCCN(C)CCCNC(=O)c2ccc(NCCN(C)C)c3c(=O)c4ccccc4[nH]c23)c2[nH]c3ccccc3c(=O)c12"
experimental_endpoint = "TGI"
result = "0.135 µM"

[[record]]
compound = "COC(=O)Cc1cc(OC)c(OC)cc1Br"
experimental_endpoint = "TGI"
result = "> 100 µM"

[[record]]
compound = "CO/C(=N\\N=C\\c1cc(OC)ccc1OC)c1ccncc1"
experimental_endpoint = "TGI"
result = "> 10 µM"

[[record]]
compound = "O=C(O)[C@H]1[C@@H](C2CCCCC2)O[C@@H](C2CCCCC2)O[C@H]1C(F)(F)F"
experimental_endpoint = "TGI"
result = "38.8 µM"

[[record]]
compound = "O=C1C(N2CCCC2)=CC(=O)c2c(O)c(N3CCCC3)c(Cl)c(O)c21"
experimental_endpoint = "TGI"
result = "> 10 µM"

[[record]]
compound = "COc1cccc2c1OC1c3ccccc3OCC1C2 (stereo unspecified)"
experimental_endpoint = "TGI"
result = "> 100 µM"

[[record]]
compound = "O=C1CSC2(CC(/C=C/c3ccccc3)=NN2c2cccc(S(=O)(=O)O)c2)N1c1nc2ccccc2s1 (stereo unspecified)"
experimental_endpoint = "TGI"
result = "> 100 µM"

[[record]]
compound = "COc1ccc(-c2nc(N)c(C#N)c3c2CCS(=O)(=O)c2ccc(C)cc2-3)cc1OC"
experimental_endpoint = "TGI"
result = "> 100 µM"

[[record]]
compound = "COc1cc(/C=C/C(=O)OCC23CC[C@@]4(C(=O)O)CCC(C)[C@H](C)C4C2=CCC2[C@@]4(C)CC[C@H](O)C(C)(C)C4CC[C@]23C)ccc1O (stereo partly specified)"
experimental_endpoint = "TGI"
result = "> 100 µM"

[[record]]
compound = "C=CCNC(=S)Nc1sc2c(c1C(=O)OCC)CC(C)CC2 (stereo unspecified)"
experimental_endpoint = "TGI"
result = "44.1 µM"

[[record]]
compound = "CCOc1ccccc1NC(=O)CCC(=O)OC"
experimental_endpoint = "TGI"
result = "> 100 µM"

[[record]]
compound = "O=C1C=CC2CCC1C2 (stereo unspecified)"
experimental_endpoint = "TGI"
result = "89.9 µM"

[[record]]
compound = "COc1cccc2c1C(=O)c1c(O)c3c(c(O)c1C2=O)CC(O)(C(C)=O)CC3OC1CC(N)C(O)C(C)O1 (stereo unspecified)"
experimental_endpoint = "TGI"
result = "0.912 µg/mL"


* * *

System: NCI-H226 lung
Assay: NCI tumour cell line growth inhibition, 48 h
This listing pairs compounds with measured TGI.
Experimental Endpoint: TGI (µM)

[[record]]
compound = "CC[C@@]1(O)C(=O)OCc2c1cc1n(c2=O)Cc2c-1nc1ccccc1c2/C=N\\NC(=O)C(N)CC(C)C (some centres undefined)"
readout_unit = "µM"
measurement_qualifier = "="
quantitative_readout = 0.975

[[record]]
compound = "O=C1c2c(F)c(F)c(F)c(F)c2SC2=NCCN12"
readout_unit = "µM"
measurement_qualifier = "="
quantitative_readout = 34.5

[[record]]
compound = "CN(C)c1ccc2c(c1)C(=O)N(OS(=O)(=O)c1ccc([N+](=O)[O-])cc1)C2=O"
readout_unit = "µM"
measurement_qualifier = ">"
quantitative_readout = 100


* * *

Tested on: XF 498 CNS
Test: NCI tumour cell line growth inhibition, 48 h
Recorded TGI for the following compounds
Experimental Endpoint: TGI (µM)

[[record]]
compound = "CN(C)c1ccc2c(c1)C(=O)N(OS(=O)(=O)c1ccc([N+](=O)[O-])cc1)C2=O"
target = "XF 498 CNS"
experimental_endpoint = "TGI"
measurement_qualifier = "="
quantitative_readout = 35.1

[[record]]
compound = "C#CCC[C@@H]1O[C@@]1(C)CC/C=C(\\C)CC/C=C/C=O"
target = "XF 498 CNS"
experimental_endpoint = "TGI"
measurement_qualifier = "="
quantitative_readout = 58.2

[[record]]
compound = "CCOc1ccc2nc(NC(=O)C(=O)C(C(=O)c3ccccc3-c3ccccc3)C3OC(=O)c4ccccc43)sc2c1 (stereo not given)"
target = "XF 498 CNS"
experimental_endpoint = "TGI"
measurement_qualifier = "="
quantitative_readout = 49.1

[[record]]
compound = "COc1ccc(/C=C2\\CN(C)Cc3c2nc(N)nc3-c2ccc(OC)cc2)cc1"
target = "XF 498 CNS"
experimental_endpoint = "TGI"
measurement_qualifier = ">"
quantitative_readout = 100

[[record]]
compound = "CC1=NN(C(=O)c2ccccc2O)C(=O)/C1=C/c1ccc([N+](=O)[O-])cc1"
target = "XF 498 CNS"
experimental_endpoint = "TGI"
measurement_qualifier = ">"
quantitative_readout = 100


* * *

Item-by-item account of TGI
Test system: EKVX NSCLC
Experiment: NCI tumour cell line growth inhibition, 48 h
Experimental Endpoint: TGI

[[record]]
compound = "O=S(=O)(Oc1ccc2oc3ccccc3c2c1-c1c(OS(=O)(=O)C(F)(F)F)ccc2oc3ccccc3c12)C(F)(F)F"
experimental_endpoint = "TGI"
result = "> 100 µM"

[[record]]
compound = "Cc1ccc(S(=O)(=O)c2scc(-c3ccccc3)c2C)cc1"
experimental_endpoint = "TGI"
result = "> 100 µM"

[[record]]
compound = "C=CC(=O)Nc1ccc(Nc2nccc(-c3ccc(N4CCCC4)c(C#N)c3)n2)cc1"
experimental_endpoint = "TGI"
result = "> 25 µM"

[[record]]
compound = "COc1cc(/C=C/C(=O)OCC23CC[C@@]4(C(=O)O)CCC(C)[C@H](C)C4C2=CCC2[C@@]4(C)CC[C@H](O)C(C)(C)C4CC[C@]23C)ccc1O (stereo not given in full)"
experimental_endpoint = "TGI"
result = "33.1 µM"

[[record]]
compound = "CC1=C(C(=O)NCc2ccccc2)C(c2ccc(C3C(C(=O)NCc4ccccc4)=C(C)NC(C)=C3C(=O)NCc3ccccc3)cc2)C(C(=O)NCc2ccccc2)=C(C)N1"
experimental_endpoint = "TGI"
result = "28.9 µM"

[[record]]
compound = "O=C(O)CN(c1ccccc1)S(=O)(=O)c1ccc(NC(=O)c2ccccc2)cc1"
experimental_endpoint = "TGI"
result = "> 100 µM"

[[record]]
compound = "CO[C@H](C(=O)[C@@H](O)[C@@H](C)O)[C@@H]1Cc2cc3cc(O[C@H]4C[C@@H](O[C@H]5C[C@@H](O)[C@H](O)C(C)O5)[C@H](O)C(C)O4)c(C)c(O)c3c(O)c2C(=O)[C@H]1O[C@H]1C[C@@H](O[C@H]2C[C@@H](O[C@H]3C[C@@H](OC)[C@H](O)C(C)O3)[C@@H](O)C(C)O2)C(O)(O)C(C)O1 (stereo not given in full)"
experimental_endpoint = "TGI"
result = "> 25 µM"

[[record]]
compound = "OCC1OC(c2scc3c(=S)nc[nH]c23)C(O)C1O (stereo not given)"
experimental_endpoint = "TGI"
result = "> 100 µM"

[[record]]
compound = "O=C(O)c1ccccc1.[Ag]"
experimental_endpoint = "TGI"
result = "55.4 µM"

[[record]]
compound = "CN(C)CCNc1ccc(C(=O)NCCCN(C)CCCNC(=O)c2ccc(NCCN(C)C)c3c(=O)c4ccccc4[nH]c23)c2[nH]c3ccccc3c(=O)c12"
experimental_endpoint = "TGI"
result = "3.8 µM"

[[record]]
compound = "NS(=O)(=O)c1ccc(NC(=O)c2ccc(NC3=C(Cl)C(=O)N(Cc4ccccc4)C3=O)cc2)cc1"
experimental_endpoint = "TGI"
result = "> 100 µM"

[[record]]
compound = "Cc1ccc(C)n1-c1ccccc1C1SCCCS1"
experimental_endpoint = "TGI"
result = "> 100 µM"

[[record]]
compound = "C1=C(c2ccccc2)CN(c2ccccc2)OC1"
experimental_endpoint = "TGI"
result = "> 100 µM"

[[record]]
compound = "CC[P+](C)(Cc1ccccc1)c1ccccc1 (stereo not given)"
experimental_endpoint = "TGI"
result = "> 100 µM"

[[record]]
compound = "CN1C(=O)c2c(ccc3c2OCO3)C2C(O)Cc3cc4c(cc3C21)OCO4 (stereo not given)"
experimental_endpoint = "TGI"
result = "60.9 µM"

[[record]]
compound = "COc1ccc(S(=O)(=O)NC(C)C(=O)O)cc1 (stereo not given)"
experimental_endpoint = "TGI"
result = "> 100 µM"

[[record]]
compound = "COc1cc(/C(Cl)=C/C=C/C(=O)c2c(C)[n+]([O-])c3ccc(Cl)cc3[n+]2[O-])cc(OC)c1OC"
experimental_endpoint = "TGI"
result = "> 50 µM"

[[record]]
compound = "CC1=C([Se]CC(OC(=O)[C@@H](CSSC(C)(C)C)NC(=O)OC(C)(C)C)C(=O)NC(C)(C)C)C(=O)c2ccccc2C1=O (stereo not given in full)"
experimental_endpoint = "TGI"
result = "3.11 µM"

[[record]]
compound = "CN1CCN(c2ccc(C(=O)Nc3n[nH]c4ccc(Cc5cc(F)cc(F)c5)cc34)c(NC3CCOCC3)c2)CC1"
experimental_endpoint = "TGI"
result = "> 10 µM"

[[record]]
compound = "CC[C@@]1(O)C(=O)OCc2c1cc1n(c2=O)Cc2c-1nc1ccccc1c2/C=N\\NC(=O)C(N)CC(C)C (stereo not given in full)"
experimental_endpoint = "TGI"
result = "> 100 µM"

[[record]]
compound = "C=CCC1(O)c2ccccc2C(=O)c2c(O)ccc(O)c21 (stereo not given)"
experimental_endpoint = "TGI"
result = "57 µM"

[[record]]
compound = "COc1ccc(Cn2c(C)nc3c2C(=O)c2ccccc2C3=O)cc1"
experimental_endpoint = "TGI"
result = "49.2 µM"

[[record]]
compound = "CC(=O)NC1C(OCc2ccccc2)OC(CO)C(O)C1OCC(=O)NC(C)C(=O)NC(CCC(=O)NCCCCNc1ccc([N+](=O)[O-])c2[nH]c3ccccc3c(=O)c12)C(N)=O (stereo not given)"
experimental_endpoint = "TGI"
result = "> 100 µM"

[[record]]
compound = "O=C(Nc1ccc(Cl)cc1Cl)c1ccc(NC2=C(Cl)C(=O)N(Cc3ccccc3)C2=O)cc1"
experimental_endpoint = "TGI"
result = "46.1 µM"

[[record]]
compound = "COC(=O)[C@@H](NC(=O)NC(=O)NC(=O)CI)C(C)C"
experimental_endpoint = "TGI"
result = "31.4 µM"

[[record]]
compound = "CC12CC3C(CC1SCC(=O)O2)C3(C)C (stereo not given)"
experimental_endpoint = "TGI"
result = "> 100 µM"

[[record]]
compound = "Nc1ccn(C2OC(CO)C(O)C2F)c(=O)n1 (stereo not given)"
experimental_endpoint = "TGI"
result = "> 5000 µM"

[[record]]
compound = "COCOc1ccc(C(=O)C(C)c2ccc(OCOC)cc2OCOC)c(O)c1 (stereo not given)"
experimental_endpoint = "TGI"
result = "> 100 µM"

[[record]]
compound = "O=C(c1ccccc1)c1c(NCC(O)CN2CCCC2)n(Cc2ccccc2)c(=O)n(Cc2ccccc2)c1=O (stereo not given)"
experimental_endpoint = "TGI"
result = "49.1 µM"

[[record]]
compound = "O=C(O)c1ccccc1Cc1ccco1"
experimental_endpoint = "TGI"
result = "> 100 µM"

[[record]]
compound = "COc1cc(CCc2cccnc2)cc(OC)c1OC"
experimental_endpoint = "TGI"
result = "> 100 µM"

[[record]]
compound = "CCC(C)[C@H](NC(=O)[C@H](Cc1ccccc1)NC(=O)N(CC)c1ccccc1)C(=O)N[C@@H](CC(C)C)C(=O)OC (stereo not given in full)"
experimental_endpoint = "TGI"
result = "> 100 µM"

[[record]]
compound = "O=C(O)CSCc1cccc2ccccc12"
experimental_endpoint = "TGI"
result = "> 100 µM"

[[record]]
compound = "COc1cc2c(/C=N\\N=C(N)N)c(Cl)[nH]c2cc1C"
experimental_endpoint = "TGI"
result = "34.5 µM"

[[record]]
compound = "N#Cc1cccc(N2C(=O)c3c(c(-c4ccccc4)c(-c4ccc(Sc5ccc(-c6c(-c7ccccc7)c7c(c(-c8ccccc8)c6-c6ccccc6)C(=O)N(c6cccc(C#N)c6)C7=O)cc5)cc4)c(-c4ccccc4)c3-c3ccccc3)C2=O)c1"
experimental_endpoint = "TGI"
result = "> 100 µM"

